System: human HEp2 cells
Assay: Time-dependent cellular uptake
Type: cell-based
Conditions: 10 μM compound, 24 h
QUANTITY NAME: Cellular uptake at 24 h

SUBSTANCE	RECORDED VALUE
3,5,8-Triphenyl-2,6-dithienyl-BODIPY [BODIPY 3]	0.14±0.01 nM/cell
3,5,8-Triphenyl-2,6-dichloro-BODIPY [BODIPY 2]	1.2±0.10 nM/cell
2,3,5,6,8-Pentaphenyl-BODIPY [BODIPY 4]	0.058±0.028 nM/cell
8-(4-Cyanophenyl)-3,5-di(4-methoxyphenyl)-2,6-dithienyl-BODIPY [BODIPY 7]	0.12±0.01 nM/cell
8-(4-Benzyloxycarbonylphenyl)-3,5-di(4-methoxyphenyl)-2,6-dichloro-BODIPY [BODIPY 6a]	0.14±0.01 nM/cell

Source: paper PMC5510570
